The measurements presented in this section are drawn from ChEMBL document CHEMBL1201862.

Record form. Attribute: GI50. Fill in for each entry.
system: SF-295; assay: NCI tumour cell line growth inhibition, 48 h
The source made the active and inactive calls. No stated cut-off is given here; in the data, active = GI50 up to about 1.1 µM and inactive = higher.

Hello, I am looking for reported GI50 with SF-295 for C/C=C/C=C/[C@H]1Cc2cc(O)cc(O)c2O1 . Could you help?
57.3 µM (inactive)

Would you kindly repeat that for CC(C)[Si](OC1=CCC[C@H]2NC(=O)[C@@H](Cc3ccc([N+](=O)[O-])cc3)[C@@]12C)(C(C)C)C(C)C ?
4.59 µM (inactive)

Would you kindly repeat that for C1=C[C@@H]2c3ccc4cnccc4c3NC[C@@H]2C1 ?
> 100 µM (inactive)

Would you kindly repeat that for C=C1C(=O)C=C2C=C3C(=O)C(C)(C)C[C@]3(O)C12C (stereo not given in full) ?
19 µM (inactive)

Would you kindly repeat that for NCCOCn1cc(Cc2cccc(OCc3ccccc3)c2)c(=O)[nH]c1=O ?
> 100 µM (inactive)

Would you kindly repeat that for CC(=O)NC(CCC(=O)C=[N+]=[N-])C(=O)O (stereo not given) ?
> 100 µM (inactive)

Would you kindly repeat that for CCOC(=O)C1=C(C)N(c2ccc(Cl)cc2)C2(O)C=CC(Nc3ccc(Cl)cc3)=C3C(=O)N(c4ccccc4)C(=O)C312 (stereo not given) ?
3.18 µM (inactive)

Would you kindly repeat that for N#CC(/C(=N/NC(N)=S)C(=O)Nc1cccc(Cl)c1)c1ccccc1 (stereo not given) ?
> 100 µM (inactive)

Would you kindly repeat that for COC(=O)N/N=C/c1oc(-c2ccccc2)c(-c2ccccc2)c1[N+](=O)[O-] ?
> 100 µM (inactive)

Would you kindly repeat that for Cc1ccc(/N=N/c2cc(=O)[nH]c(=O)[nH]2)cc1C ?
15.3 µM (inactive)

---

Record form. Attribute: GI50. Fill in for each entry.
test system: LXFL 529; test: NCI tumour cell line growth inhibition, 48 h
The source made the active and inactive calls. Rule as the data show it: active = GI50 up to about 1.1 µM and inactive = higher.

Any idea what GI50 was measured for O=C1Sc2ccccc2C(=O)N2CSCC12 (centres undefined) ?
> 100 µM (inactive)

Would you kindly repeat that for COc1cc(/C=C(\NC(=O)c2ccccc2)c2nc3c(O)nc(S)nc3[nH]2)cc(OC)c1OC ?
> 100 µM (inactive)

Would you kindly repeat that for O=C(/C=C/c1ccccc1)c1ccc(NCc2nc3ccccc3[nH]2)cc1 ?
2.83 µM (inactive)

Would you kindly repeat that for COC(=O)N/N=C/c1oc(-c2ccccc2)c(-c2ccccc2)c1[N+](=O)[O-] ?
> 100 µM (inactive)

Would you kindly repeat that for O/N=C1/C(=C/c2ccc(Oc3ccccc3)cc2)CCCC1C(NO)c1ccc(Oc2ccccc2)cc1 (centres undefined) ?
33 µM (inactive)

Would you kindly repeat that for O=C(c1ccccc1)[C@H]1Nc2ccc(Cl)cc2[C@H]2c3ccccc3O[C@H]21 ?
15 µM (inactive)

Would you kindly repeat that for COC(=O)N/N=C(/CCN1CCCC1)CC(c1ccccc1)c1c(O)c2ccccc2oc1=O (centres undefined) ?
> 100 µM (inactive)

Would you kindly repeat that for O=c1c2ccccc2oc2nccnc12 ?
> 100 µM (inactive)

Would you kindly repeat that for CC(=O)NCc1c(C(N)=O)ncn1Cc1ccccc1 ?
> 100 µM (inactive)

Would you kindly repeat that for COc1cc(C2c3cc4c(cc3[C@H](NS(C)(=O)=O)C3COC(=O)[C@H]23)OCO4)cc(OC)c1OC (some centres undefined) ?
0.731 µM (active)

Would you kindly repeat that for O=C(/N=C(/Nc1ccccc1)SCCS/C(=N\C(=O)c1ccccc1)Nc1ccccc1)c1ccccc1 ?
56.2 µM (inactive)

Would you kindly repeat that for O=C1CC[C@@H](NC(=O)Cc2ccccc2)C(=O)N1 ?
> 100 µM (inactive)

Would you kindly repeat that for CC(=O)Oc1ccc(O)c2c1CCCC2 ?
16.3 µM (inactive)

Would you kindly repeat that for O=C(CC1(O)C(=O)Nc2c(Cl)ccc(Cl)c21)c1ccc(Cl)cc1Cl (centres undefined) ?
14.6 µM (inactive)

Would you kindly repeat that for COc1cc(CNc2nc3c(NC(C)=O)cc(C(F)(F)F)cc3nc2-c2ccccc2)cc(OC)c1OC ?
> 100 µM (inactive)

Would you kindly repeat that for CCC1CCC2CCCC(C)N12 (centres undefined) ?
> 100 µM (inactive)

Would you kindly repeat that for COC(=O)[C@@]1(C)C(=O)CC[C@@H]1C=O ?
> 100 µM (inactive)

Would you kindly repeat that for CCOC(=O)CN(Cn1cncn1)Cn1cncn1 ?
40.2 µM (inactive)

Would you kindly repeat that for CC[N+]1(C)CCC(O)(c2ccccc2)C(C(=O)c2ccccc2)C1 (centres undefined) ?
10 µM (inactive)

Would you kindly repeat that for CC(C)/C=C1\CCC(CN2CCCC2)C1=O (centres undefined) ?
3.03 µM (inactive)

Would you kindly repeat that for COc1ccc2[nH]c3c(c2c1)[C@H](C)C[C@@H]1C(=O)N(c2ccccc2)C(=O)[C@H]31 ?
29.6 µM (inactive)

Would you kindly repeat that for COC(=O)C[S+]([O-])c1ccccc1 (centres undefined) ?
31.8 µM (inactive)

Would you kindly repeat that for Cc1cc(C)c(-n2c(-c3ccc(Br)cc3)cs/c2=N\N=C2C=C(C(C)(C)C)C(=O)C(C(C)(C)C)=C2)c(C)c1 ?
> 100 µM (inactive)

Would you kindly repeat that for COc1ccc(/N=N/c2c(N)nn(C)c2N)cc1 ?
> 100 µM (inactive)

Would you kindly repeat that for COc1cc2c(cc1OC)C(C(CBr)CBr)N(C1CCCC1)CC2 (centres undefined) ?
> 100 µM (inactive)

Would you kindly repeat that for NCCOCn1cc(Cc2cccc(OCc3ccccc3)c2)c(=O)[nH]c1=O ?
> 100 µM (inactive)

Would you kindly repeat that for O=C1c2ccccc2C(=O)c2c(NCCNCCO)ccc(O)c21 ?
3.69 µM (inactive)

Would you kindly repeat that for CCS/C(=N\c1ccccc1)SC ?
> 100 µM (inactive)

Would you kindly repeat that for CCOc1cn(C2OC(CO)C(O)C2O)c(=O)[nH]c1=O (centres undefined) ?
> 100 µM (inactive)

Would you kindly repeat that for CCOC(=O)NC(=O)c1cn(CCCOC(=O)CCCCCCCCCCC(=O)OCCCn2cc(C(=O)NC(=O)OCC)c(=O)n(C)c2=O)c(=O)n(C)c1=O ?
> 100 µM (inactive)

Would you kindly repeat that for COc1ccc(C2(CN(C)C)COc3cc(OC)c(OC)cc3C2=O)cc1OC (centres undefined) ?
20.1 µM (inactive)

Would you kindly repeat that for CC1CC2C3CCC4=CC(=O)C=CC4(C)C3(F)C(O)CC2(C)C1(O)C(=O)COP(=O)(O)O (centres undefined) ?
> 100 µM (inactive)

Would you kindly repeat that for CCCCCC(/C=C/[C@@H]1[C@H]2CC(=O)O[C@H]2C[C@H]1N1CCOCC1)OC1CCCO1 (some centres undefined) ?
> 100 µM (inactive)

Would you kindly repeat that for O=C1C/C(=C/c2ccc(/C=C3/CC(=O)N(c4cccc(Br)c4)C3=O)cc2)C(=O)N1c1cccc(Br)c1 ?
> 100 µM (inactive)
